assay: Oral bioavailability in Rhesus monkey; assay type: ADME, organism-based, Macaca mulatta; settings: in vivo
Binary call on bioavailability: YES from 4% upward, NO beneath that.

Prompt line: # check: bioavailability of `O=C(Cc1csc2ccccc12)N[C@@H]1C(=O)N2C(C(=O)O)=C(Cl)CS[C@H]12` is greater than or equal to 4%
Response line: NO

Prompt line: Would you mind doing `O=C(COc1ccccc1)N[C@@H]1C(=O)N2C(C(=O)O)=C(Cl)CS[C@H]12` as well?
Response line: YES

Prompt line: Would you mind doing `CC1(C)S[C@@H]2[C@H](NC(=O)COc3ccccc3)C(=O)N2[C@H]1C(=O)O` as well?
Response line: YES

Prompt line: Would you mind doing `Nc1nc(CC(=O)N[C@@H]2C(=O)N3C(C(=O)O)=C(Cl)CS[C@H]23)cs1` as well?
Response line: YES

Prompt line: Would you mind doing `O=C(Cc1cccs1)N[C@@H]1C(=O)N2C(C(=O)O)=C(Cl)CS[C@H]12` as well?
Response line: YES

Prompt line: Would you mind doing `O=C(Cc1ccccc1)N[C@@H]1C(=O)N2C(C(=O)O)=C(Cl)CS[C@H]12` as well?
Response line: YES

====

assay: Mean plasma levels in rats 40 min after iv administration of 100 mg/kg of probenecid 5 min prior to test compound; assay type: ADME, organism-based; set-up: dose 100 mg/kg, route intravenous; settings: rat, read-out: Plasma levels
recorded.endpoint: concentration at 40 min (ng/mL)
Please give a number only; it is taken to be in ng/mL.

smiles_record=Nc1nc(CC(=O)N[C@@H]2C(=O)N3C(C(=O)O)=C(Cl)CS[C@H]23)cs1 recorded_endpoint="concentration at 40 min" endpoint_unit=ng/mL test_value=15600

// moving on: another record for concentration at 40 min
Prompt line: Recorded concentration at 40 min of `O=C(COc1ccccc1)N[C@@H]1C(=O)N2C(C(=O)O)=C(Cl)CS[C@H]12` , please.
Response line: 25200

====

# maps each entry to its log10 MIC
tested on: Streptococcus pneumoniae; experiment: Minimum inhibitory concentration against Park strain of Streptococcus pneumoniae
On a log10 scale: recorded MIC, unit µg/mL.

Use these answered entries as a reference point.
smiles_record=O=C(COc1ccccc1)N[C@@H]1C(=O)N2C(C(=O)O)=CCS[C@H]12 experimental_system="Streptococcus pneumoniae" test_value=0.00
smiles_record=O=C(Cc1cccs1)N[C@@H]1C(=O)N2C(C(=O)O)=C(Cl)CS[C@H]12 experimental_system="Streptococcus pneumoniae" test_value=-0.90
smiles_record=COCC1=C(C(=O)O)N2C(=O)[C@@H](NC(=O)COc3ccccc3)[C@H]2SC1 experimental_system="Streptococcus pneumoniae" test_value=-0.90
smiles_record=O=C(COc1ccccc1)N[C@@H]1C(=O)N2C(C(=O)O)=C(Cl)CS[C@H]12 experimental_system="Streptococcus pneumoniae" test_value=-0.90
smiles_record=O=C(Cc1csc2ccc(Cl)cc12)N[C@@H]1C(=O)N2C(C(=O)O)=C(Cl)CS[C@H]12 experimental_system="Streptococcus pneumoniae" test_value=-1.82
smiles_record=O=C(Cc1ccccc1)N[C@@H]1C(=O)N2C(C(=O)O)=C(Cl)CS[C@H]12 experimental_system="Streptococcus pneumoniae" test_value=-0.90
smiles_record=O=C(Cc1ccc(O)cc1)N[C@@H]1C(=O)N2C(C(=O)O)=C(Cl)CS[C@H]12 experimental_system="Streptococcus pneumoniae" test_value=-0.60
smiles_record=Nc1nc(CC(=O)N[C@@H]2C(=O)N3C(C(=O)O)=C(Cl)CS[C@H]23)cs1 experimental_system="Streptococcus pneumoniae" test_value=-0.60

Prompt line: Recorded log10 MIC of `O=C(Cc1ccccc1)N[C@@H]1C(=O)N2C(C(=O)O)=CCS[C@H]12` , please.
Response line: 0.00

Prompt line: Would you mind doing `CC1=C(C(=O)O)N2C(=O)[C@@H](NC(=O)COc3ccccc3)[C@H]2SC1` as well?
Response line: 0.30

Prompt line: Would you mind doing `C=CC1=C(C(=O)O)N2C(=O)[C@@H](NC(=O)Cc3csc(N)n3)[C@H]2SC1` as well?
Response line: -0.30

Prompt line: Would you mind doing `COC1=C(C(=O)O)N2C(=O)[C@@H](NC(=O)Cc3csc(N)n3)[C@H]2SC1` as well?
Response line: 0.30
